// provenance: paper PMC10786919

- assay-explanation: Lactate dehydrogenase (LDH) release assay
- Assay type: cell-based
- conditions: 0% FBS 4Hr; read-out: LDH: Cytotoxicity assay EC50
- Protocol: HCT116 cells were stably transfected with a p53 responsive β-lactamase reporter and expanded in McCoy’s 5 A Medium with 10% fetal bovine serum (FBS), Blasticidin, and Penicillin/Streptomycin and then transferred to 1.5 ml freezing vials and stored under liquid nitrogen in growth media containing 5% DMSO. […] Lactate dehydrogenase release was detected using the CytoTox-ONE Homogenous Membrane Integrity Assay Kit (Promega), as per the manufacturer’s instructions. […]
pEC50: −log10 of the molar value. Positions of bridges follow the written chain, without caps; N, C: chain ends. Non-standard residues stand in square brackets, D forms with d. Residues, ends and D or L forms follow the SMILES beside them. R8 = C=CCCCCCC[C@@](C)(N)C(=O)O; Cba = N[C@@H](CC1CCC1)C(=O)O; S5 = C=CCCC[C@](C)(N)C(=O)O
endpoint-label: pEC50

CC(=O)N[C@@H](CCCCN=[N+]=[N-])C(=O)NCCC(=O)N[C@@H](CC(C)C)C(=O)N[C@@H](CCCCN)C(=O)N[C@@H](Cc1ccccc1)C(=O)N[C@]1(C)CCCCCCC=CCCC[C@@](C)(C(=O)N[C@@H](CO)C(=O)N[C@@H](C)C(=O)N[C@@H](C)C(N)=O)NC(=O)[C@H](CC2CCC2)NC(=O)[C@H](CCC(N)=O)NC(=O)[C@H](C)NC(=O)[C@H](Cc2c[nH]c3ccccc23)NC(=O)[C@H](Cc2ccc(O)cc2)NC(=O)[C@H](CCC(=O)O)NC1=O [MP-547, AZIDE-ATSP-7041 (T2K)] | < 4.30

Any idea what its pEC50 is? The compound is CC(=O)N[C@@H](CC(C)C)C(=O)N[C@@H](Cc1c[nH]cn1)C(=O)N[C@@H](Cc1ccccc1)C(=O)N[C@]1(C)CCCCCCC=CCCC[C@@](C)(C(=O)N[C@@H](CO)C(=O)N[C@@H](C)C(=O)N[C@@H](C)C(N)=O)NC(=O)[C@H](CC2CCC2)NC(=O)[C@H](CC(C)C)NC(=O)[C@H](CCC(N)=O)NC(=O)[C@H](Cc2c[nH]c3ccccc23)NC(=O)[C@H](Cc2ccc(O)cc2)NC(=O)[C@H](CCC(=O)O)NC1=O [MP-198, ATSP-7041 (T2H)] (Ac-LHF[R8]EYWQL[Cba][S5]SAA-NH2; staple 4-11) < 4.30
